- Tested on: 885724-159-R-J1-PDC complex spheroid viability;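 further: spheroids exposed to agents for seven days before readout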
- assay_comment: Anticancer human tumor 885724-159-R-J1-PDC patient-derived pancreatic adenocarcinoma cell line growth inhibition [GQUAD]
- run_conditions: curve of first compound; second compound 3.16 µM
Each entry below carries its recorded IC50.

Reference set (2 entries):
For reference, reported IC50 for CC1COCCN1c1cc(C2(S(C)(=N)=O)CC2)nc(-c2ccnc3[nH]ccc23)n1 (stereo unspecified) + CN(C)c1ccc(Nc2c3ccc(NC(=O)CCN4CCCC4)cc3nc3cc(NC(=O)CCN4CCCC4)ccc23)cc1 stands at > 10 µM

Looking up CC1COCCN1c1cc(C2(S(C)(=N)=O)CC2)nc(-c2ccnc3[nH]ccc23)n1 (stereo unspecified) + Cc1cnc(CNC(=O)c2c(=O)c3ccc(N4CCCN(C)CC4)nc3n3c2sc2ccccc23)cn1 , I see its IC50 listed as > 10 µM

New cases:
Measured IC50 of Cn1ncnc1[C@H]1c2n[nH]c(=O)c3cc(F)cc(c23)N[C@@H]1c1ccc(F)cc1 + Cc1[nH]c2ccc(F)cc2c1-c1nc2c3cccnc3c3ncccc3c2[nH]1 : < 0.000999 µM

Record summary for Nc1ccn(C2OC(CO)C(O)C2(F)F)c(=O)n1 (stereo unspecified) + Cc1[nH]c2ccc(F)cc2c1-c1nc2c3cccnc3c3ncccc3c2[nH]1 : reported IC50 = < 0.0316 µM

// recorded IC50 for C=CC(=O)N1CCN(c2nc(=O)n(-c3c(C)ccnc3C(C)C)c3nc(-c4c(O)cccc4F)c(F)cc23)C(C)C1 (stereo unspecified) + Cc1cnc(CNC(=O)c2c(=O)c3ccc(N4CCCN(C)CC4)nc3n3c2sc2ccccc23)cn1 : > 10 µM

Entry O=C(c1cc(Cc2n[nH]c(=O)c3ccccc23)ccc1F)N1CCN(C(=O)C2CC2)CC1 + Cc1[nH]c2ccc(F)cc2c1-c1nc2c3cccnc3c3ncccc3c2[nH]1 ; IC50 = < 0.0316 µM

For reference, reported IC50 for O=C(c1cc(Cc2n[nH]c(=O)c3ccccc23)ccc1F)N1CCN(C(=O)C2CC2)CC1 + Cc1cnc(CNC(=O)c2c(=O)c3ccc(N4CCCN(C)CC4)nc3n3c2sc2ccccc23)cn1 stands at > 10 µM

Lab note: CC1COCCN1c1cc(-c2ccnn2C)c2ccnc(-c3ccn[nH]3)c2n1 (stereo unspecified) + Cc1[nH]c2ccc(F)cc2c1-c1nc2c3cccnc3c3ncccc3c2[nH]1 gave IC50 of 0.0524 µM

// field: IC50; key: CC[C@@]1(O)C(=O)OCc2c1cc1n(c2=O)Cc2cc3c(CN(C)C)c(O)ccc3nc2-1 + CN(C)c1ccc(Nc2c3ccc(NC(=O)CCN4CCCC4)cc3nc3cc(NC(=O)CCN4CCCC4)ccc23)cc1 ; value = > 0.316 µM

Value of IC50 reported for the compound CCCS(=O)(=O)Nc1ccc(F)c(C(=O)c2c[nH]c3ncc(-c4ccc(Cl)cc4)cc23)c1F + Cc1[nH]c2ccc(F)cc2c1-c1nc2c3cccnc3c3ncccc3c2[nH]1 is < 0.0316 µM

For C#Cc1c(F)ccc2cc(O)cc(-c3ncc4c(N5CC6CCC(C5)N6)nc(OCC56CCCN5CC(F)C6)nc4c3F)c12 (stereo unspecified) + CN(C)c1ccc(Nc2c3ccc(NC(=O)CCN4CCCC4)cc3nc3cc(NC(=O)CCN4CCCC4)ccc23)cc1 the compound record lists IC50 as 2.94 µM

All figures here come from PubChem BioAssay AID2060502.
